Measured Average of 2 trials SEPTTR-184 1DP, listed per entry for reference.
# System: Zymoseptoria tritici (SEPTTR-184)
# Test Name: Efficacy of target gene fragments (MgCytB dsRNA tiles) on wheat plants, SEPTTR-184
# Type: in vivo
# Set-up: scale not given here
# Condition Info: 3.125 ppm; 1DP (preventative)
Enter a number only.

MgCytB-T1: 267 bp dsRNA of Zymoseptoria CytB region 1, location 364-630 (SEQ ID NO:4) (nucleic acid, listed as Zymoseptoria tritici, complementary strand of dsRNA) GTTCTGATGATGGCAACCGCATTCTTAGGGTATGTATTACCTTATGGTCAAATGTCTTTATGAGGAGCAACAGTTATAACTAACTTATTGAGTGCAATACCTTGAGTTGGACAAGACATAGTTGAATTCGTATGAGGTGGATTTTCTGTTAACAATGCAACATTGAACAGATTCTTTGCTCTACATTTCGTTTTACCGTTTGTGTTAGCTGCATTAGTTTTAATGCATCTAATAGCTTTACACGATACAGCGGGTTCAGGAAATCCT: 53

Query :: # get_value(readout='Average of 2 trials SEPTTR-184 1DP', item= MgCytB-T4: 219 bp dsRNA of Zymoseptoria CytB region T4, location 1-219 (SEQ ID NO:7) (nucleic acid, listed as Zymoseptoria tritici, complementary strand of dsRNA) ATGAGGATTTGGAAGAGTCACCCTTTATTTAGTCTGGTTAATGGTTATCTTATCGATTCACCACAACCAAGTAATCTAAGCTATCTATGAAATTTCGGTTCATTACTGGGATTTTGTCTTGTAATACAAATCGTTACTGGTGTTACACTTGCTATGCATTATAACCCTAGCGTATCTGAAGCATTTAACTCAGTTGAACACATAATGAGAGATGTAAAC )
Result :: 71
